Origin of values: patent US20230357447A1

- system.tested: T1, Anti-CD28 scFv (VH-linker 1-VL) (biotinylated (site not stated))
- T1 construct: biotinylated and captured on neutravidin coated plates in the phage ELISA
- measurement.notes: phage binding ELISA on captured anti-CD28 scFv, wells pre-incubated with soluble CD28 (competitor);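 further: crude clonal phage supernatants added without washing, bound phage detected by HRP-conjugated anti-M13 antibody, control wells held blocking buffer alone instead of CD28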
So I've got a bunch of binders here, and I need their CD28 scFv signal in presence of CD28 values.
Just the number, please, no unit attached.

Looking up MDWCPMYMWHKCFH [Phage-415] , I see its CD28 scFv signal in presence of CD28 listed as 0.168

Looking up ITWCPTSLWNRCLV [Phage-382] , I see its CD28 scFv signal in presence of CD28 listed as 0.089

Looking up MDWCPRDMWFECFN [Phage-393] , I see its CD28 scFv signal in presence of CD28 listed as 0.778

Looking up MDWCPRFLWDVCFN [Phage-330] , I see its CD28 scFv signal in presence of CD28 listed as 0.309

Looking up MDWCPRHLWDECFY [Phage-331] , I see its CD28 scFv signal in presence of CD28 listed as 0.146

Looking up MDWCPRALWDHCFN [Phage-328] , I see its CD28 scFv signal in presence of CD28 listed as 0.293

Looking up MHWCPLYLWDECFY [Phage-366] , I see its CD28 scFv signal in presence of CD28 listed as 0.376

Looking up IDWCPRYMWHECFF [Phage-410] , I see its CD28 scFv signal in presence of CD28 listed as 0.164

Looking up IMWCPTSLWNRCVT [Phage-384] , I see its CD28 scFv signal in presence of CD28 listed as 0.129

Looking up MNWCPIDMWTECFN [Phage-406] , I see its CD28 scFv signal in presence of CD28 listed as 0.175

Looking up MDWCPRPLWHECFA [Phage-359] , I see its CD28 scFv signal in presence of CD28 listed as 0.138

Looking up MAWCPWYLWDECFN [Phage-348] , I see its CD28 scFv signal in presence of CD28 listed as 0.267

Looking up MDWCPMFLWHECFS [Phage-360] , I see its CD28 scFv signal in presence of CD28 listed as 0.193

Looking up MDWCPMYLWDECFF [Phage-356] , I see its CD28 scFv signal in presence of CD28 listed as 0.178

Looking up LHWCPTSMWTYCYY [Phage-392] , I see its CD28 scFv signal in presence of CD28 listed as 2.46

Looking up MDWCPRHLWTYCFH [Phage-376] , I see its CD28 scFv signal in presence of CD28 listed as 0.207

Looking up IDWCPRALWDACLA [Phage-332] , I see its CD28 scFv signal in presence of CD28 listed as 0.164

Looking up MDWCPAYLWDECFA [Phage-325] , I see its CD28 scFv signal in presence of CD28 listed as 0.163

Looking up MHWCPTYMWSECFA [Phage-400] , I see its CD28 scFv signal in presence of CD28 listed as 0.161

Looking up MHWCPRHLWSECFN [Phage-361] , I see its CD28 scFv signal in presence of CD28 listed as 0.478

Looking up MDWCPRAMWDYCFY [Phage-397] , I see its CD28 scFv signal in presence of CD28 listed as 0.339

Looking up MDWCPRHLWYECFS [Phage-324] , I see its CD28 scFv signal in presence of CD28 listed as 0.163

Looking up MDWCPIHLWYECFN [Phage-352] , I see its CD28 scFv signal in presence of CD28 listed as 0.203

Looking up MDWCPRHLWHACFS [Phage-346] , I see its CD28 scFv signal in presence of CD28 listed as 0.167

Looking up NHWCPTTLWNRCVA [Phage-386] , I see its CD28 scFv signal in presence of CD28 listed as 0.093

Looking up MNWCPIHMWNQCFA [Phage-407] , I see its CD28 scFv signal in presence of CD28 listed as 0.133

Looking up MDWCPRHLWLECFN [Phage-387] , I see its CD28 scFv signal in presence of CD28 listed as 0.074

Looking up MDWCPRHLWVHCFS [Phage-344] , I see its CD28 scFv signal in presence of CD28 listed as 0.173

Looking up MFWCPKDMWAECFA [Phage-408] , I see its CD28 scFv signal in presence of CD28 listed as 0.113

Looking up MDWCPFDLWLECFN [Phage-377] , I see its CD28 scFv signal in presence of CD28 listed as 0.12

Looking up TDWCPRDMWYLCFN [Phage-396] , I see its CD28 scFv signal in presence of CD28 listed as 0.301
